Tested on: HCC 2998
Assay Procedure: NCI tumour cell line growth inhibition, 48 h
Active and inactive are the calls of the source. No stated cut-off is given here; in the data, active = GI50 up to about 1.1 µM and inactive = higher.
Measured Quantity: GI50

Answered cases to consult:
| Compound | GI50 |
| --- | --- |
| N=c1n(C(=O)N2CCCC2)c2cc(Cl)ccc2n1C1=NCCN1 | > 100 µM (inactive) |
| COc1ccc2[nH]c3c(c2c1)CC(=O)N1CCC[C@H](C1)CC31OCCCO1 | > 100 µM (inactive) |
| COc1cc2cnc3c4cc(OC(C)C)c(OC)cc4ccc3c2cc1OC | > 100 µM (inactive) |
| CCOC(=O)C1=C(C)N(c2ccc(C)cc2)C2=C(C(=O)N(c3ccccc3)C2c2ccccc2)C1c1ccccc1 (stereo not given) | 18.4 µM (inactive) |

Lookup result for Nc1nc(Cl)cc(NCCCCCCCCNc2cc(Cl)nc(N)n2)n1 ; measured GI50: 65.6 µM (inactive)

====

// reported GI50 for each item listed
System: M14
Assay Procedure: NCI tumour cell line growth inhibition, 48 h
Calls of active or inactive are those of the source. Cut-off read from the data, not from the text of the source: active = GI50 up to about 1.1 µM and inactive = higher.

Answered cases to consult:
| Compound | GI50 |
| --- | --- |
| C[C@]12CC[C@H](O)C[C@H]1CC[C@@H]1[C@@H]2CC[C@]2(C)[C@@H](C3=CC(=O)OC3)[C@@H](O)C[C@]12O | 2.45 µM (inactive) |
| Nc1nc(O)c2[nH]cnc2[n+]1[O-] | > 100 µM (inactive) |
| O=S(=O)(N1CCCCN(S(=O)(=O)C(F)(F)F)CCCN(S(=O)(=O)C(F)(F)F)CCCCN(S(=O)(=O)C(F)(F)F)CCCN(S(=O)(=O)C(F)(F)F)CCCCN(S(=O)(=O)C(F)(F)F)CCCN(S(=O)(=O)C(F)(F)F)CCCCN(S(=O)(=O)C(F)(F)F)CCC1)C(F)(F)F | > 31.6 µM (inactive) |

Query O=C(O/N=c1/ccc(=O)/c(=N\OC(=O)c2ccccc2)c1=O)c1ccccc1 on M14; GI50 returned: > 100 µM (inactive)

Query O=C1C(Cl)C2(CC(/C=C/c3cccs3)=NN2c2cccc(S(=O)(=O)O)c2)N1c1nc2ccccc2s1 (configuration not stated) on M14; GI50 returned: 99.3 µM (inactive)

Query Cc1ccc(S(=O)(=O)N2CCCC2C(=O)O[C@H]2CC[C@H]3CC=C[C@H]32)cc1 (some centres not stated) on M14; GI50 returned: 38.7 µM (inactive)

Query O=C(Nc1ccccc1)Oc1ccccc1C1CCCCC1 on M14; GI50 returned: 23.6 µM (inactive)

====

System: HCT-15
// reported GI50 for each item listed
Reply with just the number (in µM).

Answered cases to consult:
| Molecule | GI50 [µM] |
| --- | --- |
| C#CCN(Cc1ccc2nc(-c3ccccc3)c(Cl)nc2c1)c1ccc(F)cc1 | 87.1 |
| COC1Cc2c(C)c(OC(C)=O)c3cccnc3c2O1 (stereo unspecified) | 10.4 |

Lookup result for CCOC(=O)C1=NOC2(C=C(Br)C(=O)C(Br)=C2)C1 ; measured GI50: 2.03

====

Test system: LOX IMVI
Assay Procedure: NCI tumour cell line growth inhibition, 48 h
The source made the active and inactive calls. No stated cut-off is given here; in the data, active = GI50 up to about 1.1 µM and inactive = higher.
Mark one answer only. Choices: 1 (yes) for active, 0 (no) for inactive

Field: example entries. Status: answers known.
| Compound | Class Assignment |
| --- | --- |
| COC(=O)N1C[C@@]2(C=CC3(CC2)OCCO3)c2ccccc21 | 0 (no) |
| Oc1cc(Br)cc2cccnc12 | 1 (yes) |
| CCOC(=O)C(=C(SC)SC)c1nn2c(=O)cc(C)nc2s1 | 0 (no) |
| CCCCNc1nc(N)nc(Nc2ccc(Br)cc2)c1N=O | 0 (no) |
| O=c1c2ccccc2[nH]c2c(Cl)cc(Cl)c(NC3CCCCC3)c12 | 0 (no) |

Identify the outcome logged in this assay for the compound shown: CCOC(=O)C1=C(C)OC2(O)C=CC(O)=C3C(=O)N(c4ccccc4)C(=O)C312 (stereo unspecified)
0 (no)

====

System: SNB-19
Assay Procedure: NCI tumour cell line growth inhibition, 48 h
Active and inactive are the calls of the source. No stated cut-off is given here; in the data, active = GI50 up to about 1.1 µM and inactive = higher.
Measured Quantity: GI50

Answered cases to consult:
| Compound | GI50 |
| --- | --- |
| O=c1c2cccnc2[s+]([O-])n1Cc1ccccc1 (stereo unspecified) | > 100 µM (inactive) |
| CC(C)=CCC/C(C)=C/COC(C)(C)C1=CCC(C)CC1.CC(C)=CCC/C(C)=C/COC1CC(C)CCC1=C(C)C (stereo unspecified) | > 100 µM (inactive) |
| CCOC(=O)c1cn(Cc2ccccc2)c(=O)n1Cc1ccccc1 | > 100 µM (inactive) |
| O=[N+]([O-])c1cc(Cl)cc2cc(Br)cnc12 | 27.8 µM (inactive) |
| COc1cc(C2c3cc4c(cc3[C@@H](Nc3cccc(CO)c3)C3COC(=O)[C@H]23)OCO4)cc(OC)c1O (stereo partly specified) | 0.453 µM (active) |

// next entry
Lookup result for N/N=C(\C(=O)Nc1ccc([N+](=O)[O-])cc1)C(C1=Nc2cc([N+](=O)[O-])ccc2NC1)[N+](=O)[O-] (stereo unspecified) ; measured GI50: > 100 µM (inactive)

====

// reported GI50 for each item listed
System: MDA-N
Assay Procedure: NCI tumour cell line growth inhibition, 48 h
Active and inactive are the calls of the source. No stated cut-off is given here; in the data, active = GI50 up to about 1.1 µM and inactive = higher.

Answered cases to consult:
| Compound | Test Value |
| --- | --- |
| COC(=O)CCn1cnc2c(SC)ncnc21 | > 100 µM (inactive) |
| N#Cc1ccc(Oc2nc3ccccc3nc2-c2ccccc2)cc1 | > 100 µM (inactive) |
| O=C1CCC(N2C(=O)c3ccccc3C2=O)C(=O)N1 (stereo unspecified) [THALIDOMIDE] | > 100 µM (inactive) |
| O=C(OCc1ccccc1)N1CCNCCNCCN(C(=O)OCc2ccccc2)CCNCC1 | 16.2 µM (inactive) |
| COC(=O)Nc1nc2cc(S(=O)(=O)Nc3ccccn3)ccc2[nH]1 | 20.7 µM (inactive) |

Lookup result for O=c1oc2ccccc2c(-c2ccc(O)cc2)c1Oc1ccccc1 ; measured GI50: 14.3 µM (inactive)

Lookup result for C#CCN(Cc1ccc2nc(-c3ccccc3)c(Cl)nc2c1)c1ccc(F)cc1 ; measured GI50: > 100 µM (inactive)

Lookup result for Oc1ccccc1C1=NOC(c2ccc(C(F)(F)F)cc2)C1 (stereo unspecified) ; measured GI50: > 50 µM (inactive)

Lookup result for C=C1C(=O)OC2C1CC(O)/C(C)=C\CCC1(C)OC21 (stereo unspecified) ; measured GI50: 19.1 µM (inactive)

Lookup result for CC(C)(C)OC(=O)N/C=C1\C(=O)Oc2ccccc2C1=O ; measured GI50: 34.5 µM (inactive)

====

System: SNB-19
Assay Procedure: NCI tumour cell line growth inhibition, 48 h
Active and inactive are the calls of the source. Rule as the data show it: active = GI50 up to about 1.1 µM and inactive = higher. Where a SMILES comes first, the peptide text is derived from it. [ ]: non-standard residue; d: D form. The star is where a group is joined. Phe(4-NO2) = N[CH](Cc1ccc([N+](=O)[O-])cc1)C(=O)O; Boc = CC(C)(C)OC(=O)*
Mark one answer only. Choices: 1.0 (active), 0.0 (inactive)

Field: example entries. Status: answers known.
| Compound | Class Assignment |
| --- | --- |
| COc1cc(C(=O)Nc2nnc(S(N)(=O)=O)s2)cc(OC)c1OC | 0.0 |
| O=c1oc2ccccc2c(-c2ccc(O)cc2)c1Oc1ccccc1 | 0.0 |
| O=c1[nH]/c(=C/c2ccc(OCc3ccccc3)cn2)c(=O)[nH]/c1=C/c1cccnc1 | 1.0 |
| CCOC(=O)CCC(NC(=O)C(Cc1ccc([N+](=O)[O-])cc1)NC(=O)OC(C)(C)C)C(=O)NC(CCC(=O)OCC)C(=O)OCC (stereo not drawn) (Boc-[Phe(4-NO2)]-Glu(OEt)-Glu(OEt)-OEt; configuration not given here) | 0.0 |
| Cn1c2ccccc2c(=O)c2c(O)cc3c(c21)C=CC1(CCCCC1)O3 | 0.0 |
| Nn1c(CCCCCCCCc2nnc(-c3c(O)ccc4ccccc34)n2N)nnc1-c1c(O)ccc2ccccc12 | 0.0 |
| N#CCN1C(=O)c2cc([N+](=O)[O-])cc3cc([N+](=O)[O-])cc(c23)C1=O | 0.0 |

Let us examine a further case.
Identify the outcome logged in this assay for the compound shown: COc1cc2oc(-c3ccc4c(c3)OCO4)c(OC)c(=O)c2c(O)c1OC
0.0

====

Test system: NCI-H23
Assay Procedure: NCI tumour cell line growth inhibition, 48 h
Activity calls are given as the source filed them. No stated cut-off is given here; in the data, active = GI50 up to about 1.1 µM and inactive = higher.
Mark one answer only. Choices: YES (active), NO (inactive)

| Compound | Class Assignment |
| --- | --- |
| C=C1CC/C=C(\C)C(=O)C[C@@H]2[C@@H]1CC2(C)C | NO |
| CC1=NN(C(=O)Cc2ccccc2)C(=O)/C1=C\c1ccc([N+](=O)[O-])cc1 | NO |
| CCN(CC)CC(=O)O[C@]1(CC)C(=O)OCc2c1cc1n(c2=O)Cc2cc3ccccc3nc2-1 | YES |
| C[C@H](NS(=O)(=O)c1ccc(NC(=O)c2ccccc2)cc1)C(=O)O | NO |
| C=C1C(=O)OC2C1CC(O)/C(C)=C\CCC1(C)OC21 (stereo not given) | NO |
| C=C1CC(CNc2cc(Cl)nc(N)n2)C1 | NO |

Identify the outcome logged in this assay for the compound shown: CC(C)C(=O)Cc1ccc2ccccc2n1
NO

Identify the outcome logged in this assay for the compound shown: CCOc1ccc(C2Oc3c(cccc3OC)C=C2[N+](=O)[O-])cc1OCC (stereo not given)
NO

Identify the outcome logged in this assay for the compound shown: C[C@H]1C(OCCOC2O[C@@H]3O[C@@]4(C)CC[C@H]5[C@H](C)CCC([C@H]2C)[C@@]35O4)O[C@@H]2O[C@@]3(C)CC[C@H]4[C@H](C)CCC1[C@@]24O3 (stereo not given in full)
NO

Identify the outcome logged in this assay for the compound shown: COc1cc(C(=O)Nc2nnc(S(N)(=O)=O)s2)cc(OC)c1OC
NO

Identify the outcome logged in this assay for the compound shown: COC(=O)N1C[C@@]2(C=CC3(CC2)OCCO3)c2ccccc21
NO

Identify the outcome logged in this assay for the compound shown: Nc1ccc(S(=O)(=O)Nc2cnc3ccccc3n2)cc1
NO
